Readings of gcPBM binding intensity (ln) for the listed sequences
Tested on: PF3D7_0420300 AP2 domain 1 (GST-tagged)
Assay Name: gcPBM binding intensity (ln(normalized median fluorescence intensity)); higher = stronger DNA binding
Whole data set: some 25,000 sequences, median “ln(normalized median fluorescence intensity)” near 9.3, cut for the highest 2% near 10. The entries come from a sample that favours the highest values as a whole.
The answer should be a number; do not append a unit.

A selection of reference data follows.
Sequence Entry	gcPBM binding intensity (ln)
TATATACACAAACACACACACACATACACCCACATA [CACACA_site8504]	10.3
AAAAAAAAAAAAAACACACACACACCCATACAAAAT [CACACA_site1446]	10.1
ATTATTACTATATGTGTACACATCAACTGGTTTGAT [CACACA_site5563]	9.39

Q. Using the record for AATATATAAACATATACACACAAAAACATATATATA [CACACA_site4855] , report its gcPBM binding intensity (ln).
A. 10

Q. Would you mind doing CTATAATAATAAAGTGAACACACACCGATAATATAT [CACACA_site9377] as well?
A. 9.78

Q. Would you mind doing AATATATACATACATACATGCACATATATATATATA [TGCATGCA_site393] as well?
A. 9.36

Q. Would you mind doing TATATACAGAAACACACACACACATATATATATATA [CACACA_site2247] as well?
A. 10.1

Q. Would you mind doing GGGAGAAATTTATACATACACACATATATATATTAT [CACACA_site4039] as well?
A. 9.62

Q. Would you mind doing TATATACACCCACATACACACAAATAAAAAAACACC [CACACA_site3414] as well?
A. 9.98

Q. Would you mind doing AATAAATATATATACACACCCATATATATATATATA [CACACA_site2595] as well?
A. 9.43

Q. Would you mind doing TGGATATATGTAAAAATTGCAAGAAAGATAAAAGGA [CACACA_negctrl_site64] as well?
A. 9.6

Q. Would you mind doing TATATACACATATATAAACACACAAAAAAAAAAAAA [CACACA_site8626] as well?
A. 9.6

###

System: PF3D7_0420300 AP2 domain 1 (GST-tagged)
Assay Name: gcPBM binding intensity (ln(normalized median fluorescence intensity)); higher = stronger DNA binding
In all, about 25,000 sequences were measured (“ln(normalized median fluorescence intensity)”: median about 9.3, highest 2% from about 10 on). This excerpt belongs to a sample that is enriched for the highest values.
Measured Metric: gcPBM binding intensity (ln)

A selection of reference data follows.
Sequence Entry	gcPBM binding intensity (ln)
TATAACTTTTTTATTACACACCTATGTAATATTATA [CACACA_site944]	9.37
AACAAAATAAAACACACACACAAATGTACATATATA [CACACA_site2424]	10.2
AACAGACAGAAACACACACACATATATATATATATA [CACACA_site3394]	9.81

Q. Using the record for ACATAAAAATTATGCACACTTAATAAAGCGAAATGT [CACACA_site3183] , report its gcPBM binding intensity (ln).
A. 9.45

Q. Would you mind doing AAAATATAATATAATGCACACATAAAACAAAAAAAA [CACACA_site8989] as well?
A. 9.74

Q. Would you mind doing AGCCATTAATTCTCTACACACCTTTATGTTATTTAG [CACACA_site3635] as well?
A. 9.71

Q. Would you mind doing CATATAAAAATATGCACACACAGGAATACAAACATA [CACACA_site684] as well?
A. 10.2

Q. Would you mind doing TATTTTATAATTTACCGTACATTAATTGTATTATTA [XGTACX_site5722] as well?
A. 9.33

Q. Would you mind doing CGCATACACAGACACACACACACATATAAATATGTA [CACACA_site6444] as well?
A. 9.92

Q. Would you mind doing ACAAAATGTAAATAAACACACATATATATATATATA [CACACA_site1281] as well?
A. 9.3

Q. Would you mind doing CATACTGTTATAAAATGTACGCATATACACACACAT [XGTACX_site7256] as well?
A. 9.89

Q. Would you mind doing ATCAGTCGGCAGGACAGTACACAGTAGCCAGAAAAT [XGTACX_site2550] as well?
A. 9.49

Q. Would you mind doing ATGTTGTACAAACACACACACAAAAAAAAAATAAAA [CACACA_site2406] as well?
A. 9.89

Q. Would you mind doing AAAAATATAATATAATGTACACATAAACAAAAAAAA [XGTACX_site3658] as well?
A. 9.58

Q. Would you mind doing AAAATATATACACAAACATGCATATAATAAATAAAT [TGCATGCA_site711] as well?
A. 9.48

Q. Would you mind doing TAACAAAATGTAAATAAACACACATATATATATATA [CACACA_site8352] as well?
A. 9.37

Q. Would you mind doing CGCGCACACGGACACACACACACACGGATATAAATA [CACACA_site7102] as well?
A. 10.2

Q. Would you mind doing CCACTGTATGAATGCACACATTCATAGAATTGCTAT [CACACA_site2676] as well?
A. 9.24

Q. Would you mind doing AATACACGCAGACACACACACACACGCACATATATA [CACACA_site6447] as well?
A. 10.3

Q. Would you mind doing CACACGCACAGACACACACACACACGGATATAAATA [CACACA_site6301] as well?
A. 10.2

Q. Would you mind doing TAAATAAATTTATACACACACACACGGATATAAATA [CACACA_site6532] as well?
A. 10.1

Q. Would you mind doing ATAGTATACAGACACACACACACACGGATATAAATA [CACACA_site6914] as well?
A. 10.3

Q. Would you mind doing TATTATCTCTTATGAACACACATTTTTATTTTCAAA [CACACA_site3353] as well?
A. 9.31

Q. Would you mind doing GAGAGTAAAACAAATATACACACCATAAAGTTATAA [CACACA_site1686] as well?
A. 9.49

Q. Would you mind doing TAAATACAGACATATACACACATATATATATATATA [CACACA_site4382] as well?
A. 9.28

Q. Would you mind doing AAAATTGTTATTTTATGTACTTATATTTATTTATTT [XGTACX_site3478] as well?
A. 9.53

Q. Would you mind doing ATTAAATAAACCATTACACACTTTTATGTTTTGAAA [CACACA_site1143] as well?
A. 9.3
